Hello, the source for this data is the supplement of paper PMC4166925, in case you need it.

System: SpTbr T-box DNA-binding domain (GST fusion);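 also: protein at 200 nM in PBS on universal double-stranded arrays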
Sequence: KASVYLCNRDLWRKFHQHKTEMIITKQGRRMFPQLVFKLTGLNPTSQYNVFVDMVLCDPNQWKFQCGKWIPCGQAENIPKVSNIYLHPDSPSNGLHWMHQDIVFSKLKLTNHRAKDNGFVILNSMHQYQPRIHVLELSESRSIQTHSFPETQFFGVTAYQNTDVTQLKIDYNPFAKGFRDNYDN
Test: PBM E-score of 8-mer (E-score (dimensionless, -0.5 to 0.5)); Tbr is Tbrain of the sea star Patiria miniata (Pm) or the sea urchin Strongylocentrotus purpuratus (Sp); higher = stronger binding preference
Conditions: the construct has about 5 more residues each side
Whole data set: some 33,000 sequences, median “E-score (dimensionless, -0.5 to 0.5)” near -0.046, cut for the highest 2% near 0.36. What follows is part of a selection rich in the highest values, with near analogues and random picks from the rest.
measurement.kind: PBM E-score of 8-mer

Look over these answered cases.
CACCAATG 0.179
GAACAGTA 0.00048
CAGCCAAC 0.106
ACGCTACG 0.102
GCTTTGCA 0.0233

List the reported PBM E-score of 8-mer of each sequence below.
1. CAGTCCAC
2. AAGCGATA

0.192
0.261

List the reported PBM E-score of 8-mer of each sequence below.
1. CATCGATA
2. CCCCCATC
3. AATGCAGT
4. AGCCTCAC

1: -0.00022; 2: -0.0563; 3: -0.188; 4: 0.178
